Cited source for all entries: paper PMC10397247

measured on: T1, 4H591-bA
T1 chain: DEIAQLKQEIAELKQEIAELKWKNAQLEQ
assay summary: two-hybrid library CCNG1;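 further: natural log of median RNA to DNA barcode read ratio; higher means stronger binding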
readout: interaction score

>  <binder>
DKNAQLEQKNAELEQKIAELKWEIAQLEQ [4H3497-bA]

>  <interaction score>
-1.08

$$$$

[P] DKNAQLEQEIAELKQENAELKWEIAQLKQ [4H3162-bA]
[Q] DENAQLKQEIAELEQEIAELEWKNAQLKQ [4H1544-bA]
Query: Could you tell me which of P and Q has the lower interaction score reading? Answer by stating the label of the chosen item.
Response: P
(P: -1.2, Q: -0.632)
